Target: 14-3-3ζ (Homo sapiens, UniProt P63104)
Construct: Both full-length 14-3-3ζ and 14-3-3ζΔC12 were expressed as N-terminally His-tagged protein; His tag (TEV-cleavable) (N, cleaved yes); made in house; host or cells: Escherichia coli BL21 (DE3) pLysS
Sequence (P63104 1-245): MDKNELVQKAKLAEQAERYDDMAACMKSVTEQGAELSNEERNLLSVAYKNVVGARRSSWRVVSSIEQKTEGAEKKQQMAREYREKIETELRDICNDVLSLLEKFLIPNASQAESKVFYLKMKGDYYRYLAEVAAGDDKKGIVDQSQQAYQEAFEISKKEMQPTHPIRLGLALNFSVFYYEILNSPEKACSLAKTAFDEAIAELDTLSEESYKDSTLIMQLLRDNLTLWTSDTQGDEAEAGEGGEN
Assay: ITC of Cby peptides titrated into 14-3-3ζ
Assay type: binding
Details: 298.15 K, duplicate set (S1 Table)
Square brackets hold non-standard residues; d marks the D form. Peptide text beside a SMILES is read from it. pS = N[C@@H](COP(=O)(O)O)C(=O)O
measure_name: ∆G (kcal/mol)
Hi! Could you send only the number? It should be in kcal/mol, unit omitted.

Answered cases to consult:
molecule	units_symbol	∆G
CC(=O)N[C@@H](CCCNC(=N)N)C(=O)N[C@@H](CCCCN)C(=O)N[C@@H](CO)C(=O)N[C@@H](C)C(=O)N[C@@H](COP(=O)(O)O)C(=O)N[C@@H](CC(C)C)C(=O)N[C@@H](CO)C(N)=O [Cby 7-mer] (Ac-RKSA[pS]LS-NH2)	kcal/mol	-5.90
CC(=O)N[C@@H](CCCNC(=N)N)C(=O)N[C@@H](CCCCN)C(=O)N[C@@H](CO)C(=O)N[C@@H](C)C(=O)N[C@@H](COP(=O)(O)O)C(=O)N[C@@H](CC(C)C)C(=O)N1CCC[C@H]1C(N)=O [Cby 7-mer S22P] (Ac-RKSA[pS]LP-NH2)	kcal/mol	-7.50
CC(C)C[C@H](NC(=O)[C@H](CC(N)=O)NC(=O)[C@@H]1CCCN1C(=O)[C@H](CC(C)C)NC(=O)[C@H](COP(=O)(O)O)NC(=O)[C@H](C)NC(=O)[C@H](CO)NC(=O)[C@H](CCCCN)NC(=O)[C@H](CCCNC(=N)N)NC(=O)[C@@H]1CCCN1C(=O)[C@@H]1CCCN1C(=O)[C@@H](NC(=O)[C@@H](N)CCCCN)[C@@H](C)O)C(=O)O [Cby 13-mer S22P] (H-KTPPRKSA[pS]LPNL-OH)	kcal/mol	-8.03
CC(C)C[C@H](NC(=O)[C@H](CO)NC(=O)[C@H](Cc1c[nH]cn1)NC(=O)[C@H](CC(C)C)NC(=O)[C@H](CC(N)=O)NC(=O)[C@@H]1CCCN1C(=O)[C@H](CC(C)C)NC(=O)[C@H](COP(=O)(O)O)NC(=O)[C@H](C)NC(=O)[C@H](CO)NC(=O)[C@H](CCCCN)NC(=O)[C@H](CCCNC(=N)N)NC(=O)[C@@H]1CCCN1C(=O)[C@@H]1CCCN1C(=O)[C@@H](NC(=O)[C@@H](N)CCCCN)[C@@H](C)O)C(=O)N[C@@H](CC(=O)O)C(=O)N[C@@H](CCCNC(=N)N)C(=O)O [Cby 18-mer S22P] (H-KTPPRKSA[pS]LPNLHSLDR-OH)	kcal/mol	-8.76
CC(C)C[C@H](NC(=O)[C@H](COP(=O)(O)O)NC(=O)[C@H](C)NC(=O)[C@H](CO)NC(=O)[C@H](CCCCN)NC(=O)[C@H](CCCNC(=N)N)NC(=O)[C@@H]1CCCN1C(=O)[C@@H]1CCCN1C(=O)[C@@H](NC(=O)[C@@H](N)CCCCN)[C@@H](C)O)C(=O)N[C@@H](CO)C(N)=O [Cby 11-mer] (H-KTPPRKSA[pS]LS-NH2)	kcal/mol	-6.49

Asked: Field request: ∆G | item: CC(C)C[C@H](NC(=O)[C@H](CC(N)=O)NC(=O)[C@H](CO)NC(=O)[C@H](CC(C)C)NC(=O)[C@H](COP(=O)(O)O)NC(=O)[C@H](C)NC(=O)[C@H](CO)NC(=O)[C@H](CCCCN)NC(=O)[C@H](CCCNC(=N)N)NC(=O)[C@@H]1CCCN1C(=O)[C@@H]1CCCN1C(=O)[C@@H](NC(=O)[C@@H](N)CCCCN)[C@@H](C)O)C(=O)O [Cby 13-mer] (H-KTPPRKSA[pS]LSNL-OH)
Given back: -6.67
